TARGET OR SYSTEM: T1, rat PAI-1 (rat, UniProt P20961 24-402)
T1 sequence: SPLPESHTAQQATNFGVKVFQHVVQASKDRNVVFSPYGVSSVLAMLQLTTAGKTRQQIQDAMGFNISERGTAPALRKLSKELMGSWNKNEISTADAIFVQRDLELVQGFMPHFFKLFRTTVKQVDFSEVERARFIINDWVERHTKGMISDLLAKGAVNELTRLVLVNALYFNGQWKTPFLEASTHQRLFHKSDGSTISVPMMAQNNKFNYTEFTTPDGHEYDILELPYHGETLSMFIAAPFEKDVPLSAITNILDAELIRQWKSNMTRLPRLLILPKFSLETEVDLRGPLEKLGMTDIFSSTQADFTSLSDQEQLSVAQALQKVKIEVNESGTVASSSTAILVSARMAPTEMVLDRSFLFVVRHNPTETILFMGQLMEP
MEASUREMENT DESCRIPTION: cell-based or functional assay
QUANTITY KIND: IC50 chromogenic (nM)

BINDER: Antibody 04, scFv (scFv, V domains shown) VH: QVRLQQSGAEVKKPGSSVKVSCKASGGTFSSYAISWVRQAPGQGLEWMGGIIPTFGTANYAQKFRGRVTITANESTSTAYMELSGLRSEDTAVYYCAREKRQWLEGRFDYWGRGTLVTVSS VL: DIQMTQSPSFLSASIGDRITITCRASEGIYHSLAWYQQKPGKAPKLLIHRATSLASGTPSRFGGSGSGTDFALTISSLQPDDFATYYCQQYSNYPLTFGGGTKLEIK
UNIT ABBREVIATION: nM
REPORTED MEASUREMENT: 340
//
BINDER: Antibody 16, scFv (scFv, V domains shown) VH: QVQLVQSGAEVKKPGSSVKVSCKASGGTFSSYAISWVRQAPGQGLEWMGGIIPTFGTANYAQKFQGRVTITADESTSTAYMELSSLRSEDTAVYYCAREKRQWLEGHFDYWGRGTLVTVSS VL: DIQMTQSPSTLSASVGDRVTITCRASESIYHSLAWYQQKPGKAPKLLIYKASSLASGVPSRFSGSRSGTEFTLTISSLQPDDFATYYCQQYSNYPLTFGGGTKVEIK
UNIT ABBREVIATION: nM
REPORTED MEASUREMENT: 5.6
//
BINDER: Antibody 25, scFv (scFv, V domains shown) VH: QVQLQQSGAEVKKPGSSVKVSCKASGGTFSSYAISWVRQAPGQGLEWMGGIIPTFGTANYAQKFQGRVTITADESTSTAYMELSGLRSEDTAVYYCARERRQWLEGHFDYWGQGTPVTVSS VL: DIQMTQSPSFLSASIGDRVTITCRASESIYHELAWYQQKPGKAPKLLIYKASSLASGAPSRFSGSGSGTAFTLTISSLQPDDFATYYCQQYSNYPLTFGGGTKLEIK
UNIT ABBREVIATION: nM
REPORTED MEASUREMENT: 322
